# Protocol text: Biodistribution of technetium-labelled peptides
# Type: in vivo, CD1 mice
# Run conditions: CD1, lung, iv, 140 ug/mouse, total radioactivity; 140 μg/mouse; 2 min; read-out: injected activity in Lung
Residues, ends and D or L forms follow the SMILES beside them. *: point of attachment. X1 = Cc1nn(CCN(CCN)CCCC(=O)*)c(C)c1CC(=O)O
Measured metric: tissue uptake at 2 min
Write the numeric value and follow it with the unit.

Batch request: tissue uptake at 2 min per item, same order as input.
1. CC[C@H](C)[C@H](NC(=O)CNC(=O)[C@H](C)NC(=O)CCCN(CCN)CCn1nc(C)c(CC(=O)O)c1C)C(=O)N[C@@H](CC(C)C)C(=O)N[C@@H](CCCCN)C(=O)N[C@@H](CCCNC(=N)N)C(=O)N[C@@H](Cc1c[nH]c2ccccc12)C(=O)O [^99mTc(CO)3-Pz^1-pepH3, metal not drawn] (X1-AGILKRW-OH; C-terminus assumed)
2. Cc1nn(CCN(CCN)CCCC(=O)N[C@H](C(=O)N[C@@H](CCC(N)=O)C(=O)N[C@@H](CCC(N)=O)C(=O)N[C@@H](CC(C)C)C(=O)N[C@H](C(=O)N[C@@H](CCCCN)C(=O)N[C@@H](CCCNC(=N)N)C(=O)N[C@@H](Cc2ccccc2)C(=O)N[C@@H](CO)C(=O)N[C@@H](CC(C)C)C(=O)O)[C@@H](C)O)C(C)C)c(C)c1CC(=O)O [^99mTc(CO)3-Pz^1-pepH1, metal not drawn] (X1-VQQLTKRFSL-OH; C-terminus assumed)

[A]
4.48 %ID/g
2.6 %ID/g

* * *

# Protocol text: Biodistribution of technetium-labelled peptides
# Format: in vivo, CD1 mice
# Run conditions: mouse, muscle, 10 ug, total radioactivity; CD1 mice, iv; 1 hour; 10 μg; read-out: injected activity in Muscle
Residues, ends and D or L forms follow the SMILES beside them. *: point of attachment. X1 = Cc1nn(CCN(CCN)CCCC(=O)*)c(C)c1CC(=O)O
Would you mind telling me the reported tissue uptake at 1 h of each entry?
One number for each entry, in %ID/g.

1. CC[C@H](C)[C@H](NC(=O)CNC(=O)[C@H](C)NC(=O)CCCN(CCN)CCn1nc(C)c(CC(=O)O)c1C)C(=O)N[C@@H](CC(C)C)C(=O)N[C@@H](CCCCN)C(=O)N[C@@H](CCCNC(=N)N)C(=O)N[C@@H](Cc1c[nH]c2ccccc12)C(=O)O [^99mTc(CO)3-Pz^1-pepH3, metal not drawn] (X1-AGILKRW-OH; C-terminus assumed) : 0.3

[Q] What does the data say about its tissue uptake at 1 h? Entry: Cc1nn(CCN(CCN)CCCC(=O)N[C@H](C(=O)N[C@@H](CCC(N)=O)C(=O)N[C@@H](CCC(N)=O)C(=O)N[C@@H](CC(C)C)C(=O)N[C@H](C(=O)N[C@@H](CCCCN)C(=O)N[C@@H](CCCNC(=N)N)C(=O)N[C@@H](Cc2ccccc2)C(=O)N[C@@H](CO)C(=O)N[C@@H](CC(C)C)C(=O)O)[C@@H](C)O)C(C)C)c(C)c1CC(=O)O [^99mTc(CO)3-Pz^1-pepH1, metal not drawn] (X1-VQQLTKRFSL-OH; C-terminus assumed)
[A] 0.2

* * *

# Protocol text: Biodistribution of technetium-labelled peptides
# Assay type: in vivo, CD1 mice
# Run conditions: CD1, spleen, iv, 80 ug/mouse, total radioactivity; 80 μg/mouse; 1 hour; read-out: injected activity in Spleen
Measured metric: tissue uptake at 1 h (%ID/g)
Numbers only, in %ID/g.

[Q] What does the data say about its tissue uptake at 1 h? Entry: CSCC[C@H](NC(=O)[C@H](Cc1ccccc1)NC(=O)[C@H](CC(C)C)NC(=O)[C@H](CCCCN)NC(=O)CCCN(CCN)CCn1nc(C)c(CC(=O)O)c1C)C(=O)N[C@@H](C)C(=O)N[C@@H](CC(C)C)C(=O)N[C@H](C(=O)N[C@@H](C)C(=O)N[C@@H](Cc1ccccc1)C(=O)N[C@@H](CC(C)C)C(=O)N[C@@H](CCCNC(=N)N)C(=O)N[C@@H](Cc1ccccc1)C(=O)N[C@@H](CC(C)C)C(=O)N[C@H](C(=O)O)[C@@H](C)O)C(C)C [^99mTc(CO)3-Pz^1-pepH2, metal not drawn]
[A] 10.6
